Reference source for all entries: ChEMBL document CHEMBL3988442

Parameter Percent Effect: see the listing below.
Biological target: Sialic acid-binding Ig-like lectin 9 (Homo sapiens)
Assay: Hs-Siglec9 ALPHAscreen SOP 20170721
Set-up: scale not given: direction of the effect not stated beside the values
Details: 10 µM
Respond numerically; units are % and should not be typed.

Below are worked cases with known answers.
# compound, result-value
rows = [
    ("CN(C)C(=O)N1CCOCC2(CCN(c3ncccn3)C2)C1 (stereo unspecified)", 28.6),
    ("O=c1cc2c(nn1CN1CCN(c3cccc(Cl)c3)CC1)CCC2", 5.21),
]

### Prompt I have this compound here, COCCN(C)C[C@@H]1CN(C(=O)c2cccc(C(F)(F)F)c2)C[C@@H]1CO , and I need its recorded Percent Effect.
### Response 21.1

### Prompt Here is the next compound: Cc1cnn(CC(C)NCc2ccc(S(C)(=O)=O)cc2)c1 (stereo unspecified)
### Response 2.13

### Prompt Here is the next compound: Cc1occc1C(=O)N1CCC2(CCN(Cc3nccs3)C2)CC1
### Response 3.8

### Prompt Here is the next compound: Cc1noc(C(C)C)c1C(=O)NCC(c1cccc(F)c1)N(C)C (stereo unspecified)
### Response -2.52

### Prompt Here is the next compound: FC1(F)CCN(Cc2ccccn2)CC12CCN(c1cccnc1)C2 (stereo unspecified)
### Response -3.38

###

Target: Protein translocase subunit SecA (Escherichia coli (strain K12))
Experiment: Assay to Identify E. coli SecA ATPase Inhibitors
Assay type: functional
Design: scale not given: direction of the effect not stated beside the values
Conditions: 30 µM
Measured potencies and affinities stand elsewhere.
Parameter Percent Effect: see the listing below.
Respond numerically; units are % and should not be typed.

Below are worked cases with known answers.
# compound, recorded-endpoint, result-value
data = [
    ("O=S1(=O)C[C@@H]2[C@H](C1)N(Cc1cc(Cl)cc(Cl)c1)CCN2CC1CC1", "Percent Effect", -4.25),
    ("Cc1ccc(CNC(=O)CN2CCN(CC(O)c3ccco3)CC2)cc1 (stereo unspecified)", "Percent Effect", -2.27),
    ("COCCN1CCN(C(C)C(=O)Nc2ccnn2C(C)C)CC1 (stereo unspecified)", "Percent Effect", -4.97),
]

### Prompt I have this compound here, COc1c(C2CCCN2CC(=O)Nc2nc(C)cs2)c(C)nn1C (stereo unspecified) , and I need its recorded Percent Effect.
### Response -0.196

### Prompt Here is the next compound: CCc1nc(CN(C)CC2CCN(CC(C)O)CC2)no1 (stereo unspecified)
### Response -2.22

###

Parameter Percent Effect: see the listing below.
Target: Arginase-2, mitochondrial (Homo sapiens) (UniProt P78540)
Sequence (whole entry): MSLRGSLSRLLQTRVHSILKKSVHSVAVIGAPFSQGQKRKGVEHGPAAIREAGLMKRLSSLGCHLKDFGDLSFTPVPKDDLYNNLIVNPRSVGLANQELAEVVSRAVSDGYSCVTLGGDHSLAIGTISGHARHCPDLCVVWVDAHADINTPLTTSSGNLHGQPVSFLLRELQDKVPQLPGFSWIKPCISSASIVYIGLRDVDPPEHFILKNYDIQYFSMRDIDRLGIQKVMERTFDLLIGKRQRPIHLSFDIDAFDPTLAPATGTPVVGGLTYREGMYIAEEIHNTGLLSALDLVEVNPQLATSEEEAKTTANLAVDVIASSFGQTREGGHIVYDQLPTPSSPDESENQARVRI
Assay: in vitro enzyme assay to detect the production of urea directly proportional to the activity of Arginase II; further: in the data most compounds retested in dose-response had high values
Type: functional
Design: scale not given: direction of the effect not stated beside the values
Details: 33.3 µM
Respond numerically; units are % and should not be typed.

### Prompt I have this compound here, COc1ccc(OC)c(C(O)CN2CC(n3cccn3)C2)c1 (stereo unspecified) , and I need its recorded Percent Effect.
### Response 4.98

### Prompt Here is the next compound: CCn1ccnc1CN1CCN(Cc2ccccn2)CC1C (stereo unspecified)
### Response 5.42

### Prompt Here is the next compound: Cc1nc(CCNC(=O)NC2CCN(c3ncccn3)CC2)cs1
### Response -1.6

###

Species: Homo sapiens
Experiment: To identify inhibition of the IFN signalling (Jak-Stat) pathway via expression of an eGFP reporter gene under the control of an IFN-stimulated response element (ISRE) containing MxA promoter.
Assay type: functional
Set-up: scale not given: direction of the effect not stated beside the values
Conditions: 30 µM
recorded-endpoint: Percent Effect
State the value, then name its unit.

# molecule, result-value
records = [
    ("CC(C)OCCN(Cc1cccc(O)c1)C1CCC(O)CC1 (stereo unspecified)", "-1.68%"),
    ("NC(=O)Cc1ccc(NC(=O)C2CCOCC2)cc1", "19.3%"),
    ("Cc1nc(CN2C(=O)CC[C@H]3[C@@H]2CCN3C(=O)c2ccsc2)cs1", "-19.9%"),
    ("Cn1ccnc1CN1CCC2(CC(=O)N(c3cccc(F)c3)C2)C1 (stereo unspecified)", "6.27%"),
    ("CC(C)c1nc(C2CCCN2C(=O)c2cnc[nH]2)no1 (stereo unspecified)", "23.2%"),
]

Turning to the following molecule.
### Prompt I have this molecule here, CC(C)Sc1ncccc1C(=O)NCc1ccc(CS(C)(=O)=O)cc1 , and I need its recorded Percent Effect.
### Response 18.1%

###

Molecular target: Protein translocase subunit SecA (Escherichia coli (strain K12))
Test: Assay to Identify E. coli SecA ATPase Inhibitors
Format: functional
Design: scale not given: direction of the effect not stated beside the values
Details: 30 µM
Entries with a potency or affinity are not part of this list.
recorded-endpoint: Percent Effect (%)
Respond numerically; units are % and should not be typed.

Below are worked cases with known answers.
# compound, measured-on, Percent Effect, %
measured = [
    ("CN1CCCC(c2cccc(Cc3ccccc3Cl)n2)C1 (centres undefined)", "Protein translocase subunit SecA (Escherichia coli (strain K12))", -3.49),
    ("O=C(CCn1ccc2cc(Br)ccc21)NCc1ccc(C(=O)O)cc1", "Protein translocase subunit SecA (Escherichia coli (strain K12))", -5.12),
    ("NCC1CN(c2nc(-c3ccccc3)nc3c2CCNCC3)CCO1 (centres undefined)", "Protein translocase subunit SecA (Escherichia coli (strain K12))", -3.14),
    ("Cc1occc1C(=O)N1CCC2(CCC(=O)N(CC(N)=O)C2)CC1", "Protein translocase subunit SecA (Escherichia coli (strain K12))", -6.56),
    ("O=S1(=O)COCCN1Cc1cccc(Cl)c1", "Protein translocase subunit SecA (Escherichia coli (strain K12))", -1.74),
    ("Cc1cc(C(=O)N2CCCC2Cn2nc(C)cc2C)on1 (centres undefined)", "Protein translocase subunit SecA (Escherichia coli (strain K12))", -2.76),
    ("CC(C)c1nc(CN2CCCCC2)cs1", "Protein translocase subunit SecA (Escherichia coli (strain K12))", -4.24),
    ("Cc1ccc(C(=O)N2CCO[C@H]3[C@@H](OCc4ccccn4)CC[C@@H]32)o1", "Protein translocase subunit SecA (Escherichia coli (strain K12))", -2.21),
]

### Prompt I have this compound here, O=C(CSCC1CC1)N1CCCC(c2nccn2Cc2ccncc2)C1 (centres undefined) , and I need its recorded Percent Effect.
### Response -2.74

### Prompt Here is the next compound: COCC1CN(C(=O)CNC(C)=O)Cc2ncnn2C1 (centres undefined)
### Response -4.16

### Prompt Here is the next compound: Cc1nnc(N2CC[C@H](OCC3CC3)[C@@H](Cc3ccccc3)C2)s1
### Response -2.17

### Prompt Here is the next compound: CCCn1ncc(CN2C[C@@H]3CCCN3C[C@@H]2CCSC)c1C
### Response 0.712

### Prompt Here is the next compound: Cc1cnn(CC(C)NCc2ccc(S(C)(=O)=O)cc2)c1 (centres undefined)
### Response -2.77

### Prompt Here is the next compound: Cc1nc(C)n(CC2CCCN(c3ncnc4ccsc34)C2)n1 (centres undefined)
### Response -0.224

### Prompt Here is the next compound: Cc1nn(C)c(Cl)c1C1CCCN1C(=O)c1cc(Cl)c[nH]1 (centres undefined)
### Response -2.13

### Prompt Here is the next compound: CC(C)(CNC(=O)CCOc1cccc(F)c1)C(N)=O
### Response -1.29

### Prompt Here is the next compound: Cc1ccc(-c2nnc(CN3CCc4cnc(C)nc4C3)o2)cc1
### Response -4.56

### Prompt Here is the next compound: CN1CCN(Cc2cscn2)CC(C(=O)N(C)C)C1 (centres undefined)
### Response -6.29

### Prompt Here is the next compound: Cc1nc[nH]c1CN1C[C@@H]2CC[C@H](C1)N(C(=O)CCNS(C)(=O)=O)C2
### Response -4.5

### Prompt Here is the next compound: COc1ccc(C2CCCN2S(=O)(=O)N(C)CC(C)C)cc1 (centres undefined)
### Response -1.74

### Prompt Here is the next compound: Cc1cnn(CCC(=O)N2CCC(Nc3cccnn3)CC2)c1
### Response -6.66

### Prompt Here is the next compound: CCOCC(O)CN1CCN(C(=O)CC(C)(C)C)CC1 (centres undefined)
### Response -3.75

### Prompt Here is the next compound: CC[C@@]1(O)CCN(C(=O)c2ccc(SC)cc2)C[C@H]1O
### Response -4.3
